These entries and their values trace back to patent US11179368B2.

test system: DENV-2 16681 strain; test: DENV-2 antiviral assay (eGFP-labeled virus in Vero cells); format: cell-based, Dengue virus; settings: Dengue virus, DENV2, Vero, 72 h, DENV-2 16681 eGFP, Vero cells, MOI 0.5, 3 days
metric name: EC50 (nM)
A number alone suffices; assume nM.

Exam item: Which value of EC50 has been reported for COc1cc(NC(C(=O)N2CCc3ccc(OC(F)(F)F)cc32)c2ccc(F)cc2OCCO)cc(S(C)(=O)=O)c1 (racemic) in the records?
Marked response: 0.74

Exam item: Field request: EC50 | item: COc1cc(NC(C(=O)N2CCc3ccc(C(F)(F)F)cc32)c2ccc(Cl)cc2OCCCC(=O)O)cc(S(C)(=O)=O)c1 (racemic)
Marked response: 0.58

Exam item: Tell me the measured EC50 of COc1cc(NC(C(=O)N2CCc3ccc(C(F)(F)F)cc32)c2ccc(F)cc2OCCO)cc(S(C)(=O)=O)c1 (racemic) , please.
Marked response: 3.2

----------
tested on: DENV-3 strain H87; test: Tetravalent RT-qPCR assay, serotype 3; assay type: cell-based, Dengue virus; settings: Dengue virus, DENV3, 72 h; RT-qPCR serotype 3 H87, Vero cells, day 3
metric name: log10 of EC50 (log10 of the value in nM)
The base-10 logarithm of EC50, taken with EC50 in nM, is what appears here.

Exam item: Name the recorded log10 of EC50 for COc1cc(NC(C(=O)N2CCc3ccc(OC(F)(F)F)cc32)c2ccc(Cl)cc2OCCCC(=O)O)cc(S(C)(=O)=O)c1 (single isomer, unassigned) [Compound 9B] .
Marked response: 0.23

Exam item: Given the molecule COc1cc(NC(C(=O)N2CCc3cc(OC)c(C(F)(F)F)cc32)c2ccc(F)cc2OCCO)cc(S(C)(=O)=O)c1 (single isomer, unassigned) [Compound 2A] , what is its reported log10 of EC50?
Marked response: 1.30

Exam item: log10 of EC50 lookup needed for COc1cc(NC(C(=O)N2CCc3ccc(C(F)(F)F)cc32)c2ccc(Cl)cc2OCCCC(=O)O)cc(S(C)(=O)=O)c1 (single isomer, unassigned) [Compound 7B] , thanks.
Marked response: 0.72

Exam item: Look up log10 of EC50 for this molecule: COc1cc(NC(C(=O)N2CCc3ccc(C(F)(F)F)cc32)c2ccc(Cl)cc2OCCO)cc(S(C)(=O)=O)c1 (single isomer, unassigned) [Compound 4A]
Marked response: 1.11

Exam item: Which measured log10 of EC50 value corresponds to COc1cc(NC(C(=O)N2CCc3ccc(C(F)(F)F)cc32)c2ccc(F)cc2OCCO)cc(S(C)(=O)=O)c1 (single isomer, unassigned) [Compound 1B] ?
Marked response: 1.30

Exam item: Requested field: log10 of EC50. Item: COc1cc(NC(C(=O)N2CCc3cc(OC)c(C(F)(F)F)cc32)c2ccc(Cl)cc2OCCCC(=O)O)cc(S(C)(=O)=O)c1 (single isomer, unassigned) [Compound 8B]
Marked response: 1.28

Exam item: Any idea what log10 of EC50 was measured for COc1cc(NC(C(=O)N2CCc3ccc(OC(F)(F)F)cc32)c2ccc(Cl)cc2OCCO)cc(S(C)(=O)=O)c1 (single isomer, unassigned) [Compound 6A] ?
Marked response: 0.41

Exam item: Quick one: log10 of EC50 of COc1cc(NC(C(=O)N2CCc3ccc(OC(F)(F)F)cc32)c2ccc(F)cc2OCCO)cc(S(C)(=O)=O)c1 (single isomer, unassigned) [Compound 3B] ?
Marked response: 1.11

Exam item: Fill in: log10 of EC50 of COc1cc(NC(C(=O)N2CCc3cc(OC)c(C(F)(F)F)cc32)c2ccc(Cl)cc2OCCO)cc(S(C)(=O)=O)c1 (single isomer, unassigned) [Compound 5B] is ___
Marked response: 0.83

----------
system: DENV-2 16681 strain; experiment: DENV-2 antiviral assay (eGFP-labeled virus in Vero cells); assay type: cell-based, Dengue virus; conditions: Dengue virus, DENV2, Vero, 72 h, DENV-2 16681 eGFP, Vero cells, MOI 0.5, 3 days
Hi there, I'd appreciate the recorded EC50 for every entry that follows.
Kindly provide the numeric value in pM only, without the unit symbol.

Exam item: Given the compound COc1cc(NC(C(=O)N2CCc3cc(OC)c(C(F)(F)F)cc32)c2ccc(Cl)cc2OCCCC(=O)O)cc(S(C)(=O)=O)c1 (racemic) [Compound 8] , what is its reported EC50?
Marked response: 1900

Exam item: Give its EC50 value. Item: COc1cc(NC(C(=O)N2CCc3ccc(OC(F)(F)F)cc32)c2ccc(Cl)cc2OCCCC(=O)O)cc(S(C)(=O)=O)c1 (racemic) [Compound 9]
Marked response: 310

Exam item: Name the reported EC50 value associated with the compound COc1cc(NC(C(=O)N2CCc3cc(OC)c(C(F)(F)F)cc32)c2ccc(F)cc2OCCO)cc(S(C)(=O)=O)c1 (racemic) [Compound 2]
Marked response: 1000

Exam item: Would you mind telling me what EC50 value was observed for COc1cc(NC(C(=O)N2CCc3ccc(OC(F)(F)F)cc32)c2ccc(Cl)cc2OCCO)cc(S(C)(=O)=O)c1 (racemic) [Compound 6] ?
Marked response: 430

Exam item: So what's the measured EC50 for this one? COc1cc(NC(C(=O)N2CCc3ccc(C(F)(F)F)cc32)c2ccc(Cl)cc2OCCO)cc(S(C)(=O)=O)c1 (racemic) [Compound 4]
Marked response: 660

Exam item: Field request: EC50 | item: COc1cc(NC(C(=O)N2CCc3cc(OC)c(C(F)(F)F)cc32)c2ccc(Cl)cc2OCCO)cc(S(C)(=O)=O)c1 (racemic) [Compound 5]
Marked response: 700

----------
Record form. Attribute: EC50. Fill in for each entry.
system: DENV-2 strain 16681; assay: Tetravalent RT-qPCR assay, serotype 2; format: cell-based, Dengue virus; settings: Dengue virus, DENV2, 72 h; RT-qPCR serotype 2 16681, Vero cells, day 3

Exam item: Give the reported EC50 for COc1cc(NC(C(=O)N2CCc3ccc(C(F)(F)F)cc32)c2ccc(F)cc2OCCO)cc(S(C)(=O)=O)c1 (single isomer, unassigned) (system: DENV-2 strain 16681).
Marked response: 1.1 nM

Exam item: For the record COc1cc(NC(C(=O)N2CCc3cc(OC)c(C(F)(F)F)cc32)c2ccc(Cl)cc2OCCO)cc(S(C)(=O)=O)c1 (single isomer, unassigned) , what value of EC50 is listed for DENV-2 strain 16681?
Marked response: 0.24 nM

Exam item: Test system DENV-2 strain 16681; read-out EC50; what value for COc1cc(NC(C(=O)N2CCc3ccc(OC(F)(F)F)cc32)c2ccc(Cl)cc2OCCCC(=O)O)cc(S(C)(=O)=O)c1 (single isomer, unassigned) ?
Marked response: 0.068 nM

Exam item: Which measured EC50 belongs to COc1cc(NC(C(=O)N2CCc3cc(OC)c(C(F)(F)F)cc32)c2ccc(Cl)cc2OCCCC(=O)O)cc(S(C)(=O)=O)c1 (single isomer, unassigned) , tested on DENV-2 strain 16681?
Marked response: 0.3 nM

Exam item: Find EC50 (DENV-2 strain 16681) for the entry COc1cc(NC(C(=O)N2CCc3ccc(OC(F)(F)F)cc32)c2ccc(F)cc2OCCO)cc(S(C)(=O)=O)c1 (single isomer, unassigned)
Marked response: 0.9 nM

----------
Answer each item with its documented CC50.
assay: in vitro; settings: African green monkey
Report the value in µM with no unit label.

Exam item: State the recorded CC50 for this entry: COc1cc(NC(C(=O)N2CCc3cc(OC)c(C(F)(F)F)cc32)c2ccc(Cl)cc2OCCO)cc(S(C)(=O)=O)c1 (single isomer, unassigned) [Compound 5A]
Marked response: 16

Exam item: What value of CC50 has been reported for the following compound? COc1cc(NC(C(=O)N2CCc3ccc(OC(F)(F)F)cc32)c2ccc(F)cc2OCCO)cc(S(C)(=O)=O)c1 (racemic) [Compound 3]
Marked response: 7.9

Exam item: Request the reported CC50 associated with COc1cc(NC(C(=O)N2CCc3ccc(OC(F)(F)F)cc32)c2ccc(Cl)cc2OCCO)cc(S(C)(=O)=O)c1 (racemic) [Compound 6]
Marked response: 3.6

Exam item: Which CC50 value is on record for COc1cc(NC(C(=O)N2CCc3cc(OC)c(C(F)(F)F)cc32)c2ccc(Cl)cc2OCCCC(=O)O)cc(S(C)(=O)=O)c1 (single isomer, unassigned) [Compound 8A] ?
Marked response: 12

Exam item: # query: CC50 of entry COc1cc(NC(C(=O)N2CCc3cc(OC)c(C(F)(F)F)cc32)c2ccc(F)cc2OCCO)cc(S(C)(=O)=O)c1 (single isomer, unassigned) [Compound 2A]
Marked response: 9.6

Exam item: Which value of CC50 has been reported for COc1cc(NC(C(=O)N2CCc3cc(OC)c(C(F)(F)F)cc32)c2ccc(F)cc2OCCO)cc(S(C)(=O)=O)c1 (racemic) [Compound 2] in the records?
Marked response: 12

Exam item: So what's the measured CC50 for this one? COc1cc(NC(C(=O)N2CCc3ccc(C(F)(F)F)cc32)c2ccc(F)cc2OCCO)cc(S(C)(=O)=O)c1 (racemic) [Compound 1]
Marked response: 14

Exam item: # input compound: COc1cc(NC(C(=O)N2CCc3ccc(C(F)(F)F)cc32)c2ccc(Cl)cc2OCCO)cc(S(C)(=O)=O)c1 (single isomer, unassigned) [Compound 4A] ; wanted: its CC50
Marked response: 6

Exam item: Return reported CC50; argument: COc1cc(NC(C(=O)N2CCc3ccc(OC(F)(F)F)cc32)c2ccc(Cl)cc2OCCO)cc(S(C)(=O)=O)c1 (single isomer, unassigned) [Compound 6A]
Marked response: 7.3

Exam item: Which CC50 is listed for COc1cc(NC(C(=O)N2CCc3ccc(C(F)(F)F)cc32)c2ccc(Cl)cc2OCCCC(=O)O)cc(S(C)(=O)=O)c1 (single isomer, unassigned) [Compound 7A] ?
Marked response: 11

Exam item: Value lookup for CC50; key = COc1cc(NC(C(=O)N2CCc3cc(OC)c(C(F)(F)F)cc32)c2ccc(Cl)cc2OCCCC(=O)O)cc(S(C)(=O)=O)c1 (racemic) [Compound 8]
Marked response: 14
